Values from patent US10307404B1

experimental.protocol: PK of topical ocular sodium phosphate-based Gel Drop, concentrations 1 hour after last dose
Format: in vivo, Dutch-belted rabbits
setup.conditions: Dutch-belted, rabbit, choroid, 1 mg/ml, pH 6, 1 mg/ml pH 6.0 Phos 0.05% BAK 0.005% Gly 2% PS80 0.01% Tylox 0.2%, 3x/day 5 days, read-out: MEAN [choroid]
experimental.readout: concentration at 1 h (nM)
Answer format: numeric, nM implied, no suffix.

INPUT: I am curious: what concentration at 1 h value has been reported for Cl.NC(=O)c1c(OCc2c(F)cc(Br)cc2F)nsc1NC(=O)NCCCCN1CCCC1 [Compound-I, hydrochloride] ?
OUTPUT: 295
